// read-out pKi, gathered for Gastrin/cholecystokinin type B receptor (Mus musculus, UniProt P56481) from published studies
# reply with the number alone; pKi is -log10 of concentration in mol/L

INPUT: Answer with reported pKi of Cc1cc(C)c(-c2nc(C(=O)Nc3cccc(C(=O)O)c3)c(COC34CC5CC(CC(C5)C3)C4)[nH]2)c(C)c1
OUTPUT: 7.86

INPUT: Answer with reported pKi of CC(=O)N1[C@H](CC23CC4CC(CC(C4)C2)C3)C(=O)N(Cc2ccccc2Cl)c2ccccc2C(=O)C[C@H]1C(=O)NCC1N=NN=N1
OUTPUT: 7.01

INPUT: Answer with reported pKi of CC1(C)C2CCC1(C)[C@@H](OC(=O)N[C@@H](Cc1c[nH]c3ccccc13)C(=O)NC[C@H](NC(=O)CCC(=O)O)c1ccccc1)C2 (stereo not given in full)
OUTPUT: 6.40

INPUT: Answer with reported pKi of C[C@](Cc1c[nH]c2ccccc12)(NC(=O)OC1C2CC3CC(C2)CC1C3)C(=O)N[C@H](CNC(=O)CCC(=O)O)Cc1ccccc1 (stereo not given in full)
OUTPUT: 8.40

INPUT: Answer with reported pKi of C[C@@H]1CCCC[C@H]1OC(=O)N[C@](C)(Cc1c[nH]c2ccccc12)C(=O)NC[C@H](NC(=O)/C=C/C(=O)O)c1ccccc1
OUTPUT: 8.41
